- Test system: Danio rerio Tg(wt1b:EGFP) embryo, pronephros
- Test: glomerular width (mean of left and right), fold change vs DMSO control; higher = wider glomerulus
- Measurement Context: 25 µM; exposure: 24-48 hpf
Where a name gives a salt, the structure may show the parent alone.
Is glomerular width at least 1? Then true. If not, false.

Q: Confirm if glomerular width reported for the molecule C[C@]12CC[C@@H]3c4ccc(OS(=O)(=O)O)cc4CC[C@H]3[C@@H]1CCC2=O [Estropipate] is 1 or above.
Ans: false

Q: Note, next up: CC1(C)S[C@@H]2[C@H](NC(=O)[C@H](N)c3ccc(O)cc3)C(=O)N2[C@H]1C(=O)O [Amoxicillin]
Ans: false

Q: Note, next up: COCCCC/C(=N\OCCN)c1ccc(C(F)(F)F)cc1 [Fluvoxamine maleate]
Ans: false

Q: Note, next up: CC(C)NC[C@@H](O)COc1cccc2ccccc12 [(R)-Propranolol hydrochloride]
Ans: false

Q: Note, next up: CCCCOC(=O)c1ccc(N)cc1 [Butamben]
Ans: true

Q: Note, next up: NS(=O)(=O)c1cc2c(cc1Cl)NC(CC1CCCC1)NS2(=O)=O (stereo unspecified) [Cyclopenthiazide]
Ans: false

Q: Note, next up: Cc1cc(-c2ccccc2)nnc1NCCN1CCOCC1 [Minaprine dihydrochloride]
Ans: true

Q: Note, next up: CC[N+](C)(CC)CCC[n+]1c(-c2ccccc2)c2cc(N)ccc2c2ccc(N)cc21 [Propidium iodide]
Ans: true

Q: Note, next up: OC(CCN1CCCCC1)(c1ccccc1)C1CCCCC1 (stereo unspecified) [Trihexyphenidyl-D,L Hydrochloride]
Ans: false

Q: Note, next up: N[C@@H](C(=O)N[C@@H]1C(=O)N2C(C(=O)O)=C(Cl)CS[C@H]12)c1ccccc1 [Cefaclor hydrate]
Ans: false

Q: Note, next up: O=C(O)c1cccnc1 [Niacin]
Ans: true
